Each record here notes measured yeast ELISA signal normalized to myc expression level.
Biological target: T1, cyAXL-ECD displayed on yeast
T1 construct: extracellular domain; 'cy' read as cynomolgus
Experiment: yeast surface display ELISA, non-denatured yeast, goat anti-human F(ab')2-HRP
measure_name: yeast ELISA signal normalized to myc expression level

{"columns": ["binder", "result_number"],
 "data": [
  ["NRC-sdAb001-Fc (VHH-human IgG1 Fc fusion) (Fc fusion, VHH fused N-terminally to human IgG1 Fc, made in HEK293 cells; also called NRC-sdAb0001-Fc; NRC-sdAb001-hIgG1; not shown: human IgG1 Fc) QVKLEESGGGLVQAGGSLRLSCTASASISSFDIMGWYRQAPGKQRELVAAITTLDIANYRDSVKGRFTISRDNAKNTVYLQMDSLKPEDTARYHCAAFQSDQNYWGQGTQVTVSS", 0.824],
  ["NRC-sdAb002-Fc (VHH-human IgG1 Fc fusion) (Fc fusion, VHH fused N-terminally to human IgG1 Fc; also called NRC-sdAb0002-Fc; NRC-sdAb002-hIgG1; not shown: human IgG1 Fc) QVQLVDSGGGLVQAGGSLRLSCATSTRTVSSAVMAWFRQAPEKVRDFVGFITNSGNILYDDSVKGRFTISRDNAQNTVYLQMNSLKPEDTAVYYCAAKWSFSSGYGDLRRAAMYDYWGQGTQVTVSS", 0.76],
  ["NRC-sdAb003-Fc (VHH-human IgG1 Fc fusion) (Fc fusion, VHH fused N-terminally to human IgG1 Fc; also called NRC-sdAb0003-Fc; NRC-sdAb003-hIgG1; not shown: human IgG1 Fc) QVQLVESGGGLVQAGGSLRLSCAASGVTLDYTAIGWFRQAPGKERELVAAITSGGNTDYAESAKGRFRISRDNSKNTIYLQMNSLKPEDTGVYYCAARRGGARGEYDYWDQGTQVTVSS", 0.668],
  ["hFC-F107-10G1 (antibody, human IgG1, kappa, V domains shown, Chimeric mAb, human IgG1 / human kappa constant regions; also called mAb F107-10G1) VH: EVNLVESGGGVVKPGASLKLSCEASGFTFSNYGMSWVRQTSDKRLEWVASISGGGGRTYYLDNVKGRFIISRENAKNTLYLQMSSLKSEDTALFYCARGARASYFAMDYWGQGSSVTVSS VL: VIVMTQSHKFMSTSVGDRVSITCKASQDVTTAVAWYQQKPGQSPKLLIYWASTRHTGVPDRFTGSGSGTDYSLTISNVQTEDLAFYYCQQHFTTPLTFGAGTKLELKR", 1.14]
]}

This collection of values is drawn from patent US20240076389A1.
